Ref: paper PMC11701221

# test.system: Mgal-WhiA (Mycoplasma gallisepticum S6, UniProt A0A0F6CKV5 1-295)
# procedure.text: MST; 1 mM ATP; n = 1; multistep curve; EMSA: 20 mM carbonate pH 9.8, 6% glycerol, 37 C 10 min, gel at 10 C; MST: PBS (10 mM Na phosphate pH 7.4, 140 mM NaCl, 3 mM KCl), 0.05% Tween-20, 50 mM imidazole, 50 nM duplex, 20 C
# assay.context: protein: recombinant; label: 5' FAM (EMSA) or HEX (MST) on strand 1; blunt
measurement.type: pKd
# reply with the number alone; pKd is -log10 of concentration in mol/L

# binder rpsJ WT (dsDNA) DNA 1: AAAGATTGCTGATACACCAAAAACCGTTGTCAAGTATCAG DNA 2: CTGATACTTGACAACGGTTTTTGGTGTATCAGCAATCTTT ; its pKd = 7.06
